- test.protocol: Approximate ambient-temperature solubility, solvent addition method
- Type: physicochemical
- conditions: organic solvent or mixture, thermodynamic from solid; TFE, ambient temperature
Structures can show the parent of a compound that is named as a salt.
readout.kind: solubility (µg/mL)

# compound, measured.value
rows = [
    ("CC[C@H]1CC2C[C@H]3c4[nH]c5ccc(O)cc5c4CCN(C2)C13 [HCl, Form A, noribogaine hydrochloride]", 4000),
]

---

- test.protocol: Approximate ambient-temperature solubility, solvent addition method
- Assay type: physicochemical
- conditions: organic solvent or mixture, thermodynamic from solid; MeOH:THF 50:50, ambient temperature
Where a name gives a salt, the structure may show the parent alone.

# compound, quantity.unit, solubility
measured = [
    ("CC[C@H]1CC2C[C@H]3c4[nH]c5ccc(O)cc5c4CCN(C2)C13 [HCl, Form A, noribogaine hydrochloride]", "µg/mL", 1000),
]
